# protocol-text: in vitro
# Assay type: cell-based
Where a SMILES comes first, the peptide text is derived from it. Bridges are numbered along the chain shown (N, C = ends). [ ]: non-standard residue; d: D form. 2Nal = N[C@@H](Cc1ccc2ccccc2c1)C(=O)O; Cit = NC(=O)NCCC[C@H](N)C(=O)O
measured-attribute: CC50 at 48 h (µM)
Supply the numeric figure in µM, leaving out any unit text.

# molecule, CC50 at 48 h (µM)
rows = [
    ("N=C(N)NCCC[C@H](NC(=O)[C@@H]1CSSC[C@H](NC(=O)[C@H](Cc2ccc3ccccc3c2)NC(=O)[C@H](CCCNC(=N)N)NC(=O)[C@@H](N)CCCNC(=N)N)C(=O)N[C@@H](Cc2ccc(O)cc2)C(=O)N[C@@H](CCCNC(=N)N)C(=O)N[C@H](CCCCN)C(=O)N2CCC[C@H]2C(=O)N[C@@H](Cc2ccc(O)cc2)C(=O)N[C@@H](CCCNC(N)=O)C(=O)N1)C(N)=O [Example 2] (H-RR[2Nal]CYR[dK]PY[Cit]CR-NH2; disulfide 4-11)", 58),
]

We next turn to a different molecule, shown below.
Param item = N=C(N)NCCC[C@H](NC(=O)[C@@H]1CSSC[C@H](NC(=O)[C@H](Cc2ccc3ccccc3c2)NC(=O)[C@H](CCCNC(=N)N)NC(=O)[C@@H](N)CCCNC(=N)N)C(=O)N[C@@H](Cc2ccc(O)cc2)C(=O)N[C@@H](CCCNC(=N)N)C(=O)N2CCC[C@@H]2C(=O)N2CCC[C@H]2C(=O)N[C@@H](Cc2ccc(O)cc2)C(=O)N[C@@H](CCCNC(=N)N)C(=O)N1)C(N)=O [Example 5] (H-RR[2Nal]CYR[dP]PYRCR-NH2; disulfide 4-11; N-terminus assumed) ; retrieve measured CC50 at 48 h. 67
